Molecular target: FLT3 (Homo sapiens (Human), UniProt P36888)
property-label: IC50

Exercise: Looking for the measured IC50 of COc1cc2ncc(-c3cccc(NC4CCNC4)n3)n2cc1-c1cn[nH]c1 (stereo not shown) [Compound I-20] , can you help?
Solution: < 0.508 nM

----------
Molecular target: RET (Homo sapiens (Human))
Test: biochemical
Details: 10-dose IC50 mode, 10 μM ATP; read-out: IC50 RET
property-label: pIC50
Remember, pIC50 is on a log scale: it is -log10 of the molar concentration.

Exercise: Looking for the measured pIC50 of CC1(COc2ccc3c(c2)ncn3-c2ccc3cccc(N4CCC(N)CC4)c3n2)COC1 [Crenolinib, reference compound] , can you help?
Solution: 7.86

----------
Molecular target: PDGFRβ (Homo sapiens (Human), UniProt P09619)
Sequence (P09619 33-1106 limits assumed): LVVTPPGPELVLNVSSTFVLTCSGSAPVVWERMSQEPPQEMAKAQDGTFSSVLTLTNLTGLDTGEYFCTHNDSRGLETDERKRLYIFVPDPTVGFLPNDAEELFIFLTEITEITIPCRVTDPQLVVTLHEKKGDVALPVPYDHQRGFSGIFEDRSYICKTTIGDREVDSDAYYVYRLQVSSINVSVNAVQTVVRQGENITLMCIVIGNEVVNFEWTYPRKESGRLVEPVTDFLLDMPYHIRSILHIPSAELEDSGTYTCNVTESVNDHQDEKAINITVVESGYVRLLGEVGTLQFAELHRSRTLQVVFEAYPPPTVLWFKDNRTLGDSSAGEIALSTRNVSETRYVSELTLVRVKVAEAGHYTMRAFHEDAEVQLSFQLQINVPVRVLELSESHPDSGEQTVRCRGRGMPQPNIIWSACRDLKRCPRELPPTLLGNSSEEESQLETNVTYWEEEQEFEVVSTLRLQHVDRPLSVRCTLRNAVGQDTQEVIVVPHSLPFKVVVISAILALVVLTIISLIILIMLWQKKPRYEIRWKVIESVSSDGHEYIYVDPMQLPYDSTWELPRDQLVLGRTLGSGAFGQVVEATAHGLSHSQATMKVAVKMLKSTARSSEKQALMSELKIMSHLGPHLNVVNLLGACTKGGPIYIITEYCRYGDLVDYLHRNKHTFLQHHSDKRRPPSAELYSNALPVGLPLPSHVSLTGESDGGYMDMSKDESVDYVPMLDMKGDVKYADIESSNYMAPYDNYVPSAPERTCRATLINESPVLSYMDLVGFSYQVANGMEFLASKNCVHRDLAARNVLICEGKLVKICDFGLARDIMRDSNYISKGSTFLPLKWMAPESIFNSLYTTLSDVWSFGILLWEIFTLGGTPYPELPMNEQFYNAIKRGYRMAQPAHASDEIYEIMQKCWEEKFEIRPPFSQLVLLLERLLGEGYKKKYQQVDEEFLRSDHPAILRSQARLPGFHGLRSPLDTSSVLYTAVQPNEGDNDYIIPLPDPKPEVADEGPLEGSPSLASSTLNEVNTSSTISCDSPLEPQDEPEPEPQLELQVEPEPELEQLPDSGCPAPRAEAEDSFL
Assay: biochemical
Conditions: IC50 PDGFRβ, 10 μM ATP
property-label: pIC50
Remember, pIC50 is on a log scale: it is -log10 of the molar concentration.

Exercise: Looking for the measured pIC50 of "Clc1ccc2ncc(-c3cccc(NC4CCNCC4)n3)n2c1" , can you help?
Solution: 8.38

----------
Biological target: FLT3 (D835Y) (Homo sapiens (Human), UniProt P36888, D835Y)
Assay: biochemical
pIC50: −log10 of the molar value.
property-label: pIC50

Exercise: Looking for the measured pIC50 of COc1cc2ncc(-c3cccc(NC4CCNC4)n3)n2cc1-c1cn[nH]c1 (stereo not shown) , can you help?
Solution: > 9.29

----------
System: Phospho (P)-STAT5
Test: P-STAT5 AlphaLISA assay in MV4;11 cells
Type: cell-based
Conditions: Homo sapiens, MV4-11, 5 h, read-out: IC50 of STAT5 phosphorylation
property-label: IC50 (nM)
Give a bare numeral; the unit nM is implied.

Exercise: Tell me reported IC50 for CC(C)(C)c1cc(NC(=O)Nc2ccc(-c3cn4c(n3)sc3cc(OCCN5CCOCC5)ccc34)cc2)no1 [quizartinib, reference compound] , tested with Phospho (P)-STAT5.
Solution: 11.7

Exercise: Entry COc1cc2ncc(-c3cccc(NC4CCNC4)n3)n2cc1-c1cn[nH]c1 (centres unmarked) [Compound I-20] please
Solution: 3.6

----------
Give measured pIC50 for each item. Keep answers brief.
System: MA9-NRas cells
Experiment: NRAS IC50 (MA9-NRas cells)
Assay type: cell-based
Settings: Homo sapiens, read-out: NRAS IC50
Remember, pIC50 is on a log scale: it is -log10 of the molar concentration.

Exercise: Looking for the measured pIC50 of COc1cc2ncc(-c3cccc(NC4CCNC4)n3)n2cc1C#N (stereo not shown) , can you help?
Solution: 5.25

Exercise: Entry Clc1ccc2ncc(-c3cccc(NC4CCNC4)n3)n2c1 (stereo not shown) please
Solution: 5.75

Exercise: Entry COc1cc2ncc(-c3nc(NC4CCNC4)c(F)cc3F)n2cc1-c1cn[nH]c1 (stereo not shown) please
Solution: 4.53

Exercise: Entry "COc1cc(Cl)cn2c(-c3cccc(NC4CNC4)n3)cnc12" please
Solution: 4.68

Exercise: Entry COc1cc2ncc(-c3cccc(OC4CCNC4)n3)n2cc1-c1cn[nH]c1 (stereo not shown) please
Solution: 5.43

Exercise: Entry c1cc(NC2CCNC2)nc(-c2cnc3cc(OCCN4CCOCC4)c(-c4cn[nH]c4)cn23)c1 (stereo not shown) please
Solution: 4.75

Exercise: Entry COc1cc(-c2cn[nH]c2)cn2c(-c3cccc(NC4CCNC4)n3)cnc12 (stereo not shown) please
Solution: 4.78

Exercise: Entry "c1cc(NC2CNC2)nc(-c2cnc3ccc(-c4cn[nH]c4)cn23)c1" please
Solution: 5.37

Exercise: Entry COc1cc2ncc(-c3cccc(NC4CCNC4)n3)n2cc1-c1cc[nH]c1 (stereo not shown) please
Solution: 5.35

Exercise: Entry COc1cc2ncc(-c3cccc(NC4CCNC4)n3)n2cc1-c1cn[nH]c1 (stereo not shown) please
Solution: 4.48

Exercise: Entry COc1cc2ncc(-c3cccc(NC4CCNC4)n3)n2cc1OC (stereo not shown) please
Solution: 5.35

Exercise: Entry COc1cc2ncc(-c3cccc(NC4CCNC4)n3)n2cc1-c1cnn(CCN2CCOCC2)c1 (stereo not shown) please
Solution: 4.80

Exercise: Entry Clc1cn2c(-c3cccc(NC4CCNC4)n3)cnc2cc1OCCN1CCOCC1 (stereo not shown) please
Solution: 6.20

Exercise: Entry COc1cc2ncc(-c3cccc(NC4CCCNC4)n3)n2cc1-c1cn[nH]c1 (stereo not shown) please
Solution: 5.03

Exercise: Entry "Cn1cc(-c2ccc3ncc(-c4cccc(NC5CNC5)n4)n3c2)cn1" please
Solution: 4.78

Exercise: Entry "Clc1ccc2ncc(-c3cccc(NC4CNC4)n3)n2c1" please
Solution: 4.78

Exercise: Entry "Fc1cc(F)c(-c2cnc3ccc(Cl)cn23)nc1NC1CNC1" please
Solution: 5.73

Exercise: Entry COc1cc2ncc(-c3cccc(NC4CCNC4)n3)n2cc1-c1nnn[nH]1 (stereo not shown) please
Solution: 8.70

Exercise: Entry COc1cc2ncc(-c3cccc(NC4CCNC4)n3)n2cc1-c1ccncc1 (stereo not shown) please
Solution: 5.74

----------
Assay: physchem
Conditions: pH 7.4, aqueous buffer, kinetic from dmso stock
property-label: solubility (µg/mL)
Give a bare numeral; the unit µg/mL is implied.

Exercise: Looking for the measured solubility of COc1cc2ncc(-c3cccc(OC4CCNC4)n3)n2cc1-c1cn[nH]c1 (stereo not drawn) , can you help?
Solution: 8.2

Exercise: Entry COc1cc2ncc(-c3cccc(NC4CCNC4)n3)n2cc1-c1cccnc1 (stereo not drawn) please
Solution: 29

Exercise: Entry COc1cc2ncc(-c3cccc(NC4CCNC4)n3)n2cc1Cl (stereo not drawn) please
Solution: 7.7

Exercise: Entry COc1cc2ncc(-c3cccc(NC4CCNC4)n3)n2cc1-c1cc[nH]c1 (stereo not drawn) please
Solution: 34.3

Exercise: Entry COc1cc2ncc(-c3nc(NC4CCNC4)c(F)cc3F)n2cc1-c1cn[nH]c1 (stereo not drawn) please
Solution: 3.9

Exercise: Entry "c1cc(N[C@@H]2CCNC2)nc(-c2cnc3ccc(-c4cn[nH]c4)cn23)c1" please
Solution: 40.1

Exercise: Entry COc1cc2ncc(-c3cccc(N(C)C4CCNC4)n3)n2cc1-c1cn[nH]c1 (stereo not drawn) please
Solution: 14.1

Exercise: Entry COc1cc2ncc(-c3cccc(NC4CCNC4)n3)n2cc1-c1cn[nH]c1 (stereo not drawn) please
Solution: 4.5

Exercise: Entry "COc1cc2ncc(-c3cccc(NC4CCNCC4)n3)n2cc1-c1cn[nH]c1" please
Solution: 12.3

Exercise: Entry "N#CCC(=O)N1CC(Nc2cccc(-c3cnc4ccc(Cl)cn34)n2)C1" please
Solution: 18.3

Exercise: Entry "c1cc(N[C@H]2CCNC2)nc(-c2cnc3ccc(-c4cn[nH]c4)cn23)c1" please
Solution: 42.6

Exercise: Entry "Cn1cc(-c2ccc3ncc(-c4cccc(NC5CNC5)n4)n3c2)cn1" please
Solution: 43.1

Exercise: Entry "Clc1cc2ncc(-c3cccc(NC4CNC4)n3)n2cc1Cl" please
Solution: 41.5

Exercise: Entry COc1cc2ncc(-c3cccc(NC4CCCNC4)n3)n2cc1-c1cn[nH]c1 (stereo not drawn) please
Solution: 35.6

Exercise: Entry COc1cc2ncc(-c3cccc(NC4CCNC4)n3)n2cc1-c1ccncc1 (stereo not drawn) please
Solution: 11.6

Exercise: Entry COc1cc2ncc(-c3cccc(NC4CCNC4)n3)n2cc1C#N (stereo not drawn) please
Solution: 10.6

----------
Give measured Tmax for each item. Keep answers brief.
Assay: in vivo
Conditions: NRG/NRGS, mouse, ip, 30 mg/kg
Give a bare numeral; the unit min is implied.

Exercise: Looking for the measured Tmax of COc1cc2ncc(-c3cccc(NC4CCNC4)n3)n2cc1-c1cnn(C)c1 (stereo not drawn) [Compound I-24] , can you help?
Solution: 4.98

Exercise: Entry COc1cc2ncc(-c3cccc(NC4CCNC4)n3)n2cc1-c1cccnc1 (stereo not drawn) [Compound I-22] please
Solution: 30

Exercise: Entry Clc1ccc2ncc(-c3cccc(NC4CCNCC4)n3)n2c1 [Compound I-2] please
Solution: 30

----------
Give measured IC50 for each item. Keep answers brief.
Molecular target: RET (Homo sapiens (Human), UniProt P07949)
Sequence (P07949 29-1114 limits assumed): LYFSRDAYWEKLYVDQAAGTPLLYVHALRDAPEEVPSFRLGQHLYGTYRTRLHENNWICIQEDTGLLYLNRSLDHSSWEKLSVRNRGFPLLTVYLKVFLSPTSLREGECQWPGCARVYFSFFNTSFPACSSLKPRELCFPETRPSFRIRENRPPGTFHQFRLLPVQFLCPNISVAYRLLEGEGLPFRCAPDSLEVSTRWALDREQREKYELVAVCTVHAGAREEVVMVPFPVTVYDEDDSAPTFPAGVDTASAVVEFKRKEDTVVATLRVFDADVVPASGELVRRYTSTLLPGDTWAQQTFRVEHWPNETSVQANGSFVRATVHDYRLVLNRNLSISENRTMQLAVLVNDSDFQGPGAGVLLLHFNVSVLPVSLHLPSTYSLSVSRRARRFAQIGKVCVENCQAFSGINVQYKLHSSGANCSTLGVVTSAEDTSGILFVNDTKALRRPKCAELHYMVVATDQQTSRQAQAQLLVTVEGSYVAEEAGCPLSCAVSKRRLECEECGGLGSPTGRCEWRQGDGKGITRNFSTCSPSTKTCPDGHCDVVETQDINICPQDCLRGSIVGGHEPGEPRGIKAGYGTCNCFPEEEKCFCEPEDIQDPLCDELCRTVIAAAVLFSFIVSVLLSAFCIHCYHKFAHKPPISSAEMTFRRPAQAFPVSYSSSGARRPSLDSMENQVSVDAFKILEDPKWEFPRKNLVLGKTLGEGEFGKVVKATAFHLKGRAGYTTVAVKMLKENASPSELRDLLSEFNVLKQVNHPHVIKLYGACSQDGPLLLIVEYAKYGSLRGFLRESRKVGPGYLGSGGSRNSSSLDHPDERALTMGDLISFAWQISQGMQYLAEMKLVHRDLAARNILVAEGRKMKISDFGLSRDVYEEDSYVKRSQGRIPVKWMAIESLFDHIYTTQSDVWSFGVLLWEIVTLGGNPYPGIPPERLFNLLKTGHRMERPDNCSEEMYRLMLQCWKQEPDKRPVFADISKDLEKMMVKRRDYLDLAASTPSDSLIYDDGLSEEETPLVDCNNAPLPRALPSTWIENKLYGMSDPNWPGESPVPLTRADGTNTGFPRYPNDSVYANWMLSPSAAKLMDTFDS
Assay: biochemical
Details: IC50 RET, 10-dose IC50 mode, 10 μM ATP
Give a bare numeral; the unit nM is implied.

Exercise: Looking for the measured IC50 of "Clc1ccc2ncc(-c3cccc(NC4CCNCC4)n3)n2c1" , can you help?
Solution: 1280

Exercise: Entry Clc1ccc2ncc(-c3cccc(NC4CCCNC4)n3)n2c1 (stereo not drawn) please
Solution: 10.5

----------
Give measured IC50 for each item. Keep answers brief.
Target: PDGFRβ (Homo sapiens (Human), UniProt P09619)
Assay: biochemical
Conditions: IC50 PDGFRb, 10-dose IC50 mode, 10 μM ATP
Give a bare numeral; the unit nM is implied.

Exercise: Looking for the measured IC50 of Clc1ccc2ncc(-c3cccc(NC4CCCNC4)n3)n2c1 (stereo not drawn) [Compound I-17] , can you help?
Solution: 67

Exercise: Entry Clc1ccc2ncc(-c3cccc(NC4CCNCC4)n3)n2c1 [Compound I-2] please
Solution: 3.57

Exercise: Entry COc1cc2ncc(-c3cccc(NC4CCNC4)n3)n2cc1-c1cn[nH]c1 (stereo not drawn) [Compound I-20] please
Solution: 1.25

Data origin: patent US11254667B2
